- target.entity: PI3Kα (Homo sapiens (Human), UniProt P42336)
- Sequence (P42336 whole entry): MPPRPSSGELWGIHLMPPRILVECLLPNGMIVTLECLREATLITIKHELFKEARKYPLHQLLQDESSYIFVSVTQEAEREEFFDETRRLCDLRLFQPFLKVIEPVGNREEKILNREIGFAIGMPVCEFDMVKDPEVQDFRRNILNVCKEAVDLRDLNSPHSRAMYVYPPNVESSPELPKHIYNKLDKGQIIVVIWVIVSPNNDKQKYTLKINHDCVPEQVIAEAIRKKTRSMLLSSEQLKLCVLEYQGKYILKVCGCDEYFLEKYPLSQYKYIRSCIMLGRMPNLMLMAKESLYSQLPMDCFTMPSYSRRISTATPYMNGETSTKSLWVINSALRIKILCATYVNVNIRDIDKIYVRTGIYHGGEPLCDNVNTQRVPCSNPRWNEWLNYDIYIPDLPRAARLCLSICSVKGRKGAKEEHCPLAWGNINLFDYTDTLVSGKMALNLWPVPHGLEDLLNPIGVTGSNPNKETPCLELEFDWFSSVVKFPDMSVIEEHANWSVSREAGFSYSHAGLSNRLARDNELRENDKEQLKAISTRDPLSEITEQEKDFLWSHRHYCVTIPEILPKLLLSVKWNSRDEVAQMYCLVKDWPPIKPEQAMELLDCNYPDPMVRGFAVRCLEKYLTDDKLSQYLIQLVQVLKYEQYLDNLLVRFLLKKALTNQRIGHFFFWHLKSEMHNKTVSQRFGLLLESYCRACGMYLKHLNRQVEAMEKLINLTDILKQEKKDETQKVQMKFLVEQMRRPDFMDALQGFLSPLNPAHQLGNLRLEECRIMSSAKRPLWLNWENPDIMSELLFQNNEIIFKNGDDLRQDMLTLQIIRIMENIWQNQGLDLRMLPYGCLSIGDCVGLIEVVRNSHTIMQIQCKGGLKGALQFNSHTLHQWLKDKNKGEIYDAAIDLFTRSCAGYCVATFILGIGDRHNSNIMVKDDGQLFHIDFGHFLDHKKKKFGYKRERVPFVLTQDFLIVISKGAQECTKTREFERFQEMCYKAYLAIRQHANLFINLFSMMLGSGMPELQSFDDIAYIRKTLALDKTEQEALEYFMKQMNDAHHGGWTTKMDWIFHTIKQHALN
- Sequence (P27986 whole entry partner): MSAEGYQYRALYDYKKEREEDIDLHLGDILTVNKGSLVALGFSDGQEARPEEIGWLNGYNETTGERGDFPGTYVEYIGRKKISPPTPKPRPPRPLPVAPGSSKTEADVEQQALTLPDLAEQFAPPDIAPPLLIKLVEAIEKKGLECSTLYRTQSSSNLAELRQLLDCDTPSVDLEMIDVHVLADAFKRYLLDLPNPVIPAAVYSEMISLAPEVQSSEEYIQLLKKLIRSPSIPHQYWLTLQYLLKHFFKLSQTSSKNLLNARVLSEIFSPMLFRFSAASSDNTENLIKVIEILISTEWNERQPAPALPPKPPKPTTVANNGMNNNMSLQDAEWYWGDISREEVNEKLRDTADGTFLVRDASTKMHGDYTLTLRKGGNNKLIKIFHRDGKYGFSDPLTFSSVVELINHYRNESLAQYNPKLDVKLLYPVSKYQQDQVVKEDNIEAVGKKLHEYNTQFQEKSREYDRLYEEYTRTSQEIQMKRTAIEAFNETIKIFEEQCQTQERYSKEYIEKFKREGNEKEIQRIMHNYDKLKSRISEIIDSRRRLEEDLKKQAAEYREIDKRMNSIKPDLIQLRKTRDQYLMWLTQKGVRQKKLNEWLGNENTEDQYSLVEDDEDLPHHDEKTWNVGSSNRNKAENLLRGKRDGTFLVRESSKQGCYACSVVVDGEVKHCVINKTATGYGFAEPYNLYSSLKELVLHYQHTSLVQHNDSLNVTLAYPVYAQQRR
- protocol: PI3Kα enzyme activity inhibition IC50 evaluation assay
- Assay type: biochemical
- condition: ratio PI3Kα vs PI3Kδ
attribute.measured: α/δ selectivity

{"columns": ["smiles.representation", "target.entity", "α/δ selectivity"],
 "data": [
  ["COc1ncc(-c2nc(N3CCOCC3)nc3c(CN4CC[C@H](N5CCCC5)C4)c(C)sc23)cc1NS(C)(=O)=O", "PI3Kα (Homo sapiens (Human), UniProt P42336)", 100]
]}

1 = COc1ncc(-c2nc(N3CCOCC3)nc3c(CN4CCN(C(=O)[C@H](C)O)CC4)c(C)sc23)cc1NS(C)(=O)=O
2 = COc1ncc(-c2nc(N3CCOCC3)nc3c(CN4CCC(CO)CC4)c(C)sc23)cc1NS(C)(=O)=O
Q: Response body: label of entry with the larger α/δ selectivity; valid values 1 , 2 . Refer to your chosen entry by its label in the reply.
Result: 2
(2: 213, 1: 13)
